target_or_system: Voltage-gated inwardly rectifying potassium channel KCNH2 (Homo sapiens, UniProt Q12809)
Sequence (Q12809 whole entry): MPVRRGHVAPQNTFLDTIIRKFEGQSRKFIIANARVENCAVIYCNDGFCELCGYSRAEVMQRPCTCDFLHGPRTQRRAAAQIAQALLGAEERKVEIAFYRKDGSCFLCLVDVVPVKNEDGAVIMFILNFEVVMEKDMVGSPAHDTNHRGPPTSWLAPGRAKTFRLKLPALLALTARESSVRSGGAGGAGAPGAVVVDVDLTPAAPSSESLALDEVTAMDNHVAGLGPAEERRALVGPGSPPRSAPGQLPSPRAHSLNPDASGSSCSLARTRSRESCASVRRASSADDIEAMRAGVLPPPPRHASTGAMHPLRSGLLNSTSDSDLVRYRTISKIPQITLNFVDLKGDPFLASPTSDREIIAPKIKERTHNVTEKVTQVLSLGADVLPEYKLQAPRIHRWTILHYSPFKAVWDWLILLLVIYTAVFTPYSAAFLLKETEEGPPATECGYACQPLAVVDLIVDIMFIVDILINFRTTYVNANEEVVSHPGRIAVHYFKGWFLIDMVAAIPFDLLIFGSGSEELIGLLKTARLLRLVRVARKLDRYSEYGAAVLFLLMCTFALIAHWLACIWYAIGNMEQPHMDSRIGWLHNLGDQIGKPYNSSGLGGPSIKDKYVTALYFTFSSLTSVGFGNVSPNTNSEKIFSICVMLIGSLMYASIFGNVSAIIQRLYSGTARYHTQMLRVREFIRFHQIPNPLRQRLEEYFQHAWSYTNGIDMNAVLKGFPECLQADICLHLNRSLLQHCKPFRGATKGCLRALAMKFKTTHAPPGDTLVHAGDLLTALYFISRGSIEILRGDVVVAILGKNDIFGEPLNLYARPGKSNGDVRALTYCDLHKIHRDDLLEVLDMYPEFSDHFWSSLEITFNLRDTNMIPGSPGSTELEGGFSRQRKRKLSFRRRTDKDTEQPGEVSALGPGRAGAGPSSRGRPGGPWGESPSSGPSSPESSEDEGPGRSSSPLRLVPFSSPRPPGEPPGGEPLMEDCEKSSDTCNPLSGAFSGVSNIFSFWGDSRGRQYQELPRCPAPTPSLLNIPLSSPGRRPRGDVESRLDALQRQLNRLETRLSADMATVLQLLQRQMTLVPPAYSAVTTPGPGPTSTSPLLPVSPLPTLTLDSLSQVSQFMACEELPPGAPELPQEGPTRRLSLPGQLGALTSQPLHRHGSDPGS
experiment_summary: Inhibition of human ERG
property_measured: inhibition (INH)

Solved cases (5 shown):
compound=Cc1nc2ccccc2n1[C@@H]1C[C@H]2CC[C@@H](C1)N2CC[C@H](NC(=O)C1CCC1)c1ccccc1 property_measured="inhibition (INH)" value_observed=Active
compound=Cc1nc2ccccc2n1C1(C)CCN(CC[C@H](NC(=O)C2CCC2)c2ccccc2)CC1 property_measured="inhibition (INH)" value_observed=Active
compound="Cc1nc2ccccc2n1C1[C@H]2CN(CC[C@H](NC(=O)C3CCC3)c3ccccc3)C[C@@H]12 (some centres undefined)" property_measured="inhibition (INH)" value_observed=Active
compound=Cc1nc2ccccc2n1[C@H]1C[C@H]2CC[C@@H](C1)N2CC[C@H](NC(=O)C1CCC1)c1ccccc1 property_measured="inhibition (INH)" value_observed=Active
compound=Cc1nc2ccccc2n1[C@@H]1C[C@@H](C)N(CC[C@H](NC(=O)C2CCC2)c2ccccc2)[C@@H](C)C1 property_measured="inhibition (INH)" value_observed=Active

What value of inhibition (INH) has been recorded for this entry: `Cc1nc2ccccc2n1[C@@H]1C[C@H]2CSC[C@@H](C1)N2CC[C@H](NC(=O)C1CCC1)c1ccccc1`
Active
